- Test system: Trypanosoma cruzi
- experiment: Trypanosoma cruzi phosphomannomutase and mannose-1-phosphate guanylyltransferase assay
- Format: functional
- Design: scale not given: direction of the effect not stated beside the values
- testContext: 10 µM
readoutLabel: Percent Effect (%)
Give the value, in units of %, as a plain number.

compound | unitDescriptor | Percent Effect
Cc1nn(C)c(Cl)c1C1CCCN1c1ncnc2sccc12 (configuration not stated) | % | 5.36
CN(Cc1cccc(F)c1)C1CCN(CCc2ccccn2)CC1 | % | -0.65
Cn1ccnc1CN(CCCO)C1CCCc2ccccc21 (configuration not stated) | % | 0.876
CC(C)c1ccsc1C(=O)N1CCCN(Cc2cscn2)CC1 | % | 0.686
O=C(NS(=O)(=O)c1cc(Cl)sc1Cl)c1cccc2c1OCCO2 | % | -6.07

Now take the following compound into account.
Any idea what Percent Effect came out for Cc1ccc(C#N)c(N2CCC(c3nccn3CCN(C)C)CC2)n1 on Trypanosoma cruzi?
-3.6

====

- measurementTarget: Tyrosyl-tRNA synthetase, putative (Trypanosoma cruzi (strain CL Brener)) (UniProt Q4DSP6)
- Sequence (Q4DSP6 as listed by the source): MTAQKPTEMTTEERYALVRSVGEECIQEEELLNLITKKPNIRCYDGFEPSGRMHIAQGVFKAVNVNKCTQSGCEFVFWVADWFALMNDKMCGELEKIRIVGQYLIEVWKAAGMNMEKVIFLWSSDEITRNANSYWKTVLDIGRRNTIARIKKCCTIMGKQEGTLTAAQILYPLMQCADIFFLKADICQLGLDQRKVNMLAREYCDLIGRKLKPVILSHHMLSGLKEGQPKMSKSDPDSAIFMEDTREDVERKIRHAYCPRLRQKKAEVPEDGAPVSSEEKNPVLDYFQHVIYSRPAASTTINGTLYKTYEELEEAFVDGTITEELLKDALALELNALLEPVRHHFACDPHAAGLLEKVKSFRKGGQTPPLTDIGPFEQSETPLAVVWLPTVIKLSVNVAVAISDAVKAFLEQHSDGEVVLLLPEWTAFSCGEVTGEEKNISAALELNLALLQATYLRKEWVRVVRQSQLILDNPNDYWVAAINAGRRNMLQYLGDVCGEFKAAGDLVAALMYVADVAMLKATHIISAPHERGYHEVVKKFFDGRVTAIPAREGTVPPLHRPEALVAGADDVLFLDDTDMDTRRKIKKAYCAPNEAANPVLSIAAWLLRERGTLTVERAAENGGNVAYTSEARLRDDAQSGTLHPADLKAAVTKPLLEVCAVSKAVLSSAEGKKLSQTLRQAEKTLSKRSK
- experiment: Trypanosoma cruzi tyrosyl tRNA synthetase (TcYRS) _High Tyrosine SOP; also: in the data most compounds retested in dose-response had high values
- Type: functional
- Set-up: scale not given: direction of the effect not stated beside the values
- testContext: 30 µM
readoutLabel: Percent Effect (%)
Give the value, in units of %, as a plain number.

Solved entries:
compound | unitDescriptor | Percent Effect
Cc1ccc(N2CCCC(NCC(=O)NCC3CC3)C2)nn1 (centres undefined) | % | 7.29
Cn1ccnc1CN1CCC2(CC(=O)N(c3cccc(F)c3)C2)C1 (centres undefined) | % | 7.41
O=C1CC2(CCN(CC3CCOC3)CC2)CN1Cc1cc(F)cc(F)c1 (centres undefined) | % | 2.1
O=C(Cc1cccs1)NC1CCN(c2cccc(F)c2)CC1 | % | 5.38
CCn1c(Nc2ccccc2OC)nc2c(C)nn(C)c2c1=O | % | 8.47
Cc1cccc(-c2ccc(C(=O)NCC(C)(C)C(N)=O)c(=O)[nH]2)c1 | % | -0.493
O=C(Nc1cccc(OCc2ccc(F)cc2)c1)C1COCCO1 (centres undefined) | % | -8.2
CC(O)CN1CCN(Cc2cccc(C(=O)N(C)C)c2)CC1 (centres undefined) | % | 5.94
CN(C)c1nc2c(c(=O)[nH]1)CCN(C(=O)c1cccc3nccnc13)C2 | % | 8.6
O=C(NCCNc1ncccn1)c1ccc(-c2ccco2)[nH]c1=O | % | 8.37

Look at this compound and give its reported Percent Effect. COc1ccccc1CN1CCC2(CC1)CC(Oc1ccccn1)CO2 (centres undefined)
4.25

Look at this compound and give its reported Percent Effect. Cc1nc(C)n(CC2CCCN(Cc3nnc(-c4ccco4)o3)C2)n1 (centres undefined)
5.32

Look at this compound and give its reported Percent Effect. COCCOCC(=O)Nc1ccc(C)cc1F
2.13

====

- measurementTarget: AMP-activated protein kinase, AMPK (Homo sapiens) (UniProt P54646+O43741+P54619+Q9UGJ0+Q9Y478+Q13131+Q9UGI9)
- experiment: AMP-dependent Kinase enzyme assay. An in vitro enzyme assay that detects ADP turnover that is directly proportional to AMPK activity. This uses naive AMPK that is activated during the assay with MK-8722
- Format: functional
- Set-up: scale not given: direction of the effect not stated beside the values
- testContext: 30 µM
Please enter y where Percent Effect is greater than or equal to -10%, and n where it is lower.

compound | qualitativeLabel
Cc1ccc(C(C)N(C)Cc2nc3c(cnn3C)c(=O)[nH]2)cc1 (stereo unspecified) | y
CCn1cnnc1C1CCN(C(=O)c2cnc3ccccc3n2)CC1 | y

Answer whether Percent Effect of CCCS(=O)(=O)N1CCC(NC(=O)c2ccc(Cl)s2)CC1 is greater than or equal to -10%.
y

Answer whether Percent Effect of Cn1ccnc1CN1CCN(Cc2ccccc2C#N)CC1 is greater than or equal to -10%.
n

Answer whether Percent Effect of CS(=O)(=O)NCCCN1CCCCC1c1cc2ccccc2[nH]1 (stereo unspecified) is greater than or equal to -10%.
n

Answer whether Percent Effect of c1coc(-c2nnc(CN3CCOC(Cn4cccn4)C3)o2)c1 (stereo unspecified) is greater than or equal to -10%.
y

====

- measurementTarget: Chromo domain-containing protein 1 (Saccharomyces cerevisiae (strain ATCC 204508 / S288c) (Baker's yeast))
- experiment: ScCHD-1 Enzyme Inhibition Assay; also: in the data most compounds retested in dose-response had high values
- Assay type: functional
- Set-up: scale not given: direction of the effect not stated beside the values
- testContext: 30 µM
readoutLabel: Percent Effect
# output: numeric value plus its unit

Solved entries:
compound | experimentalValue
Cn1cccc1C(=O)N1CCC2(CC1)CN(c1ccccn1)CCO2 | -2.89%
CCC(CNC(=O)Nc1cnn(CC)c1)N1CCCC1 (configuration not stated) | -5.82%
CC(C)OCCN(Cc1cccc(O)c1)C1CCC(O)CC1 (configuration not stated) | -0.807%
Cc1noc(C)c1-c1cccc(CC2CCN(C(=O)CCC(=O)O)C2)n1 (configuration not stated) | -9.71%
Cn1cc(CN2CCN(Cc3nccn3C)CC2)cn1 | -4.77%

Look at this compound and give its reported Percent Effect. CCN1C[C@H]2CCN(C(C)=O)CC[C@H]2S1(=O)=O
-7.45%

Look at this compound and give its reported Percent Effect. O=C1CC[C@H]2[C@H](CCN2C(=O)C2CCCO2)N1CCN1CCCC1 (some centres not stated)
-4.01%

====

# Percent Effect listing for each entry below
- Tested on: Trypanosoma cruzi
- experiment: Trypanosoma cruzi phosphomannomutase and mannose-1-phosphate guanylyltransferase assay
- Assay type: functional
- Parameters: scale not given: direction of the effect not stated beside the values
- testContext: 10 µM
Give the value, in units of %, as a plain number.

Solved entries:
compound | unitDescriptor | Percent Effect
Cc1nc2c(c(C)c1CC(=O)Nc1ccc(Cl)cc1)c(=O)[nH]n2C | % | 5.36
Cc1cnn(CC2CN(Cc3cccc(OCC(N)=O)c3)CCO2)c1 (configuration not stated) | % | -7.3
CN(Cc1ccc2c(c1)OCCO2)C(=O)NCCc1cnn(C)c1 | % | -10.3

Now take the following compound into account.
Look at this compound and give its reported Percent Effect. CC(C)NC(=O)c1nnn(-c2cccc(C(F)(F)F)c2)c1C1CC1
5.73

====

- measurementTarget: Sialic acid-binding Ig-like lectin 9 (Homo sapiens) (UniProt Q9Y336)
- Sequence (Q9Y336 whole entry): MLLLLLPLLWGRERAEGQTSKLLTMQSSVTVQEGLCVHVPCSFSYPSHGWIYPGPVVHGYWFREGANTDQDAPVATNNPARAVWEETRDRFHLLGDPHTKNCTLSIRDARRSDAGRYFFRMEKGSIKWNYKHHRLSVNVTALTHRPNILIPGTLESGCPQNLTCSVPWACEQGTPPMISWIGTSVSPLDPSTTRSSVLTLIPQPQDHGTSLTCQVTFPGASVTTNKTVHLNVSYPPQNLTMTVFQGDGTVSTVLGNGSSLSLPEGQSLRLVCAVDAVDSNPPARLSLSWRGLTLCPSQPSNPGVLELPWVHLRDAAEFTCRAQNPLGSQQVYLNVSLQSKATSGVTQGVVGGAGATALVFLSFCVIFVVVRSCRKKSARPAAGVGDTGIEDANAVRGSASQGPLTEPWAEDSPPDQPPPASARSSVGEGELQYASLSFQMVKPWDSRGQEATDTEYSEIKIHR
- experiment: Hs-Siglec9 ALPHAscreen SOP 20170721
- Parameters: scale not given: direction of the effect not stated beside the values
- testContext: 10 µM
readoutLabel: Percent Effect (%)
Give the value, in units of %, as a plain number.

compound | measurementTarget | Percent Effect, %
O=C(O)c1cc2c(nc1O)CC(c1cccc(Cl)c1)CC2=O (centres undefined) | Sialic acid-binding Ig-like lectin 9 (Homo sapiens) (UniProt Q9Y336) | 2.46
CCOCC1CN(S(C)(=O)=O)Cc2cnn(C)c21 (centres undefined) | Sialic acid-binding Ig-like lectin 9 (Homo sapiens) (UniProt Q9Y336) | 10.1
COCC1CN(C(=O)CNC(C)=O)Cc2ncnn2C1 (centres undefined) | Sialic acid-binding Ig-like lectin 9 (Homo sapiens) (UniProt Q9Y336) | 8.97
CC(=O)N1CCCC1c1nccnc1Nc1cccc(C)n1 (centres undefined) | Sialic acid-binding Ig-like lectin 9 (Homo sapiens) (UniProt Q9Y336) | 5.31
O=C(CSC1=NS(=O)(=O)c2cc(F)ccc2N1)c1ccc(Cl)cc1 | Sialic acid-binding Ig-like lectin 9 (Homo sapiens) (UniProt Q9Y336) | -0.28

Look at this compound and give its reported Percent Effect. CN(C)c1ccc(C(=O)N2CCN(C(=O)N3CCCCC3)CC2)nn1
10.5

Look at this compound and give its reported Percent Effect. CC(C)(C)c1cc(CN2CC[C@@H](NC(=O)c3cccnc3)[C@H](O)C2)n[nH]1
10.3

Look at this compound and give its reported Percent Effect. Cc1cnn(CC2CCCN2Cc2nc3ccccc3nc2C)c1 (centres undefined)
1.31

Look at this compound and give its reported Percent Effect. O=C(NCC(O)c1ccc(F)c(F)c1)c1cccnc1O (centres undefined)
2.28

====

- measurementTarget: Protein translocase subunit SecA (Escherichia coli (strain K12)) (UniProt P10408)
- Sequence (P10408 whole entry): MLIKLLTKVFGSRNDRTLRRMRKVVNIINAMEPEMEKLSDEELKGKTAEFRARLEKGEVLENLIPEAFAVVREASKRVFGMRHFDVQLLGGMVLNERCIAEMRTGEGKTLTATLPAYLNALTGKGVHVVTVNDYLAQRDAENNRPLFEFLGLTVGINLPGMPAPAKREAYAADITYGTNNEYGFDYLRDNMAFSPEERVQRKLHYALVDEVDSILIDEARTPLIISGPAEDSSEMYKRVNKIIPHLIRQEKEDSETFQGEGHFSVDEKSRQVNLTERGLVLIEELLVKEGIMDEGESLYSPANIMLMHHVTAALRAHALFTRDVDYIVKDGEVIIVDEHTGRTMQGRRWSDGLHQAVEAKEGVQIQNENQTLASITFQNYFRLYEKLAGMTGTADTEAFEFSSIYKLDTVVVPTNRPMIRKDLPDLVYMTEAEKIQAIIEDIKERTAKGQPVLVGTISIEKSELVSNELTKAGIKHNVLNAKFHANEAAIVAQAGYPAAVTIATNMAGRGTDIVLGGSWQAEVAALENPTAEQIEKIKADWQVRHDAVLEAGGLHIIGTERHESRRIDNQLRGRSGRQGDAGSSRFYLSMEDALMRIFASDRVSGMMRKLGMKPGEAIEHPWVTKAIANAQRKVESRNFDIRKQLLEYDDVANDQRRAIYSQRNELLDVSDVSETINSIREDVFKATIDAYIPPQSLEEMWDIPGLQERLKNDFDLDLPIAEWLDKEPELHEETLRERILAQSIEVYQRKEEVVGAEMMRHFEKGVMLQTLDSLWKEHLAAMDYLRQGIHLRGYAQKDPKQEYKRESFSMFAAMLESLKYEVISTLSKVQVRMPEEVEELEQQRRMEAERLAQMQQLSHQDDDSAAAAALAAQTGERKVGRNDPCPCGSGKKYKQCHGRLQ
- experiment: Assay to Identify E. coli SecA ATPase Inhibitors
- Format: functional
- Design: scale not given: direction of the effect not stated beside the values
- testContext: 30 µM
Potency and affinity values are given separately.
readoutLabel: Percent Effect (%)
Give the value, in units of %, as a plain number.

Solved entries:
compound | unitDescriptor | Percent Effect
Cc1ccc(C)c(C(NC(=O)C2CC2)c2cccnc2)c1 (configuration not stated) | % | 0.279
CCCC(C)CN1CCC(n2cc(CCCO)nn2)CC1 (configuration not stated) | % | -3.6

Now take the following compound into account.
Look at this compound and give its reported Percent Effect. COc1ccc(C(O)CNC(=O)Nc2cc(C)nn2C)cc1 (configuration not stated)
-8.64

====

- measurementTarget: AMP-activated protein kinase, AMPK (Homo sapiens) (UniProt P54646+O43741+P54619+Q9UGJ0+Q9Y478+Q13131+Q9UGI9)
- experiment: AMP-dependent Kinase enzyme assay. An in vitro enzyme assay that detects ADP turnover that is directly proportional to AMPK activity. This uses naive AMPK that is activated during the assay with MK-8722
- Assay type: functional
- Set-up: scale not given: direction of the effect not stated beside the values
- testContext: 30 µM
# Percent Effect listing for each entry below
Give the value, in units of %, as a plain number.

Look at this compound and give its reported Percent Effect. O=C(O)C1(Cc2cc(-c3ccc(F)cc3F)no2)CCOCC1
11

Look at this compound and give its reported Percent Effect. C[C@H]1C[C@@H]2CCN(C(=O)c3cccn3C)C[C@H]2O1
2.27

Look at this compound and give its reported Percent Effect. O=C(C1CCN(c2snc3ccccc23)CC1)N1CCCCCC1
2.83

Look at this compound and give its reported Percent Effect. CCOc1ncccc1C(=O)N(C)Cc1ncc(C)c(OC)c1C
5.97

Look at this compound and give its reported Percent Effect. Cc1ccc([C@]2(O)CC[C@H]3CN(Cc4cccc(Cl)c4Cl)C[C@H]32)nc1
12.6
